src = ChEMBL document CHEMBL3407498

System: HEK293
Experiment: Inhibition of TGFbeta/Smad in TGFbeta-2/activin A-stimulated HEK293 cells preincubated at 2.5 uM for 2 hrs before stimulation measured after 20 to 22 hrs by firefly/renilla luciferase reporter assay
Assay type: cell-based
Conditions: Homo sapiens
Consider the following compounds; for each one, report its inhibition.
Quick note: number first, unit second.

Known inhibition results, listed for orientation:
compound	inhibition
CCNCC1=C(C(=O)OCC)C(c2ccc(-c3ccccc3)cc2)C2=C(CC(C)(C)CC2=O)N1 (centres undefined)	64%
CCOC(=O)C1=C(C)NC2=C(C(=O)CC(C)(C)C2)C1c1ccc(-c2ccc(O)cc2)cc1 (centres undefined)	74%
COC(=O)C1=C(C(=O)OC)C(c2ccc(-c3ccccc3)cc2)C2=C(CC(C)(C)CC2=O)N1 (centres undefined)	46%

Record inhibition for all entries; do not skip any.
1. CCOC(=O)C1=C(C)NC2=C(C(=O)CC(C)(C)C2)C1c1ccc(-c2ccc(Br)cc2)cc1 (centres undefined)
2. CCOC(=O)C1=C(COC)NC2=C(C(=O)CC(C)(C)C2)C1c1ccc(-c2ccccc2)cc1 (centres undefined)
3. CCOC(=O)C1=C(C)NC2=C(C(=O)CC(C)(C)C2)C1c1ccc(-c2ccc(OC(F)(F)F)cc2)cc1 (centres undefined)
4. CCOC(=O)C1=C(C)NC2=C(C(=O)CC(C)(C)C2)C1c1ccc(-c2ccc(Cl)cc2)cc1 (centres undefined)
5. COC(=O)C1=C(C(=O)O)NC2=C(C(=O)CC(C)(C)C2)C1c1ccc(-c2ccccc2)cc1 (centres undefined)

Output:
94%
78%
95%
91%
4%

Task: Query: inhibition; subject: CCOC(=O)C1=C(C)NC2=C(C(=O)CC(C)(C)C2)C1c1ccc(-c2ccc(OC)cc2)cc1 (centres undefined)
Output: 93%
